Data origin, for the record: patent US20100173914A1

Target: human adenosine A2A receptors (Homo sapiens, UniProt P29274)
Construct: host or cells: HEK-293
Sequence (P29274 whole entry): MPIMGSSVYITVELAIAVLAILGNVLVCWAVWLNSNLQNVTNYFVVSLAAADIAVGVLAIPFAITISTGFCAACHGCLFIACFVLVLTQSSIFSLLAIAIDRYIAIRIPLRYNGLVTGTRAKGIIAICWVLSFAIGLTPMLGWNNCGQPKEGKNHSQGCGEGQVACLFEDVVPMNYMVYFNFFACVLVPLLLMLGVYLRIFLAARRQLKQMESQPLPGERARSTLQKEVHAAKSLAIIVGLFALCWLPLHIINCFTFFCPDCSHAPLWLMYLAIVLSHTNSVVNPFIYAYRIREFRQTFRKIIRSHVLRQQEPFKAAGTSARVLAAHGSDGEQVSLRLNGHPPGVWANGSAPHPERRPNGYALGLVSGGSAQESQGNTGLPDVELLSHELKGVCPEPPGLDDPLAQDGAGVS
Assay: Adenosine receptor binding: binding affinities at hA2A receptors ([3H]CGS-21680 displacement)
Details: ratio of measured Ki values at hA2A and hA1
readout-label: A2A/A1 selectivity ratio (Ki A2A/Ki A1)

Example cases with answers are listed next.
Lookup: What does the record list as A2A/A1 selectivity ratio (Ki A2A/Ki A1) for `Cc1ccc(Cn2nnc3c(-c4ccco4)nc(N)nc32)cc1NS(=O)(=O)O` ?
Found: H (more than 20)

Lookup: Next up: `Nc1nc(-c2ccccc2)c2nnn(Cc3cccc(NS(=O)(=O)O)c3)c2n1`
Found: G (10 to 20)

Lookup: Next up: `Cc1ccc(Cn2nnc3c(-c4cccs4)nc(N)nc32)cc1NS(=O)(=O)O`
Found: H (more than 20)

Lookup: Next up: `COc1cc(NS(=O)(=O)O)ccc1Cn1nnc2c(-c3cccs3)nc(N)nc21`
Found: F (5 to 10)

Lookup: Next up: `Cc1cc(Cn2nnc3c(-c4ccccc4)nc(N)nc32)ccc1NS(=O)(=O)O`
Found: H (more than 20)

Lookup: Next up: `Nc1nc(-c2cccs2)c2nnn(Cc3ccc(NS(=O)(=O)O)cc3)c2n1`
Found: G (10 to 20)

Others:
Lookup: What does the record list as A2A/A1 selectivity ratio (Ki A2A/Ki A1) for `Cc1ccc(-c2nc(N)nc3c2nnn3Cc2cccc(NS(=O)(=O)O)c2)o1` ?
Found: H (more than 20)

Lookup: Next up: `COc1ccccc1-c1nc(N)nc2c1nnn2Cc1cccc(NS(=O)(=O)O)c1`
Found: E (less than 5)

Lookup: Next up: `COc1ccccc1-c1nc(N)nc2c1nnn2Cc1ccc(NS(=O)(=O)O)cc1`
Found: E (less than 5)

Lookup: Next up: `COc1cc(Cn2nnc3c(-c4ccccc4)nc(N)nc32)ccc1NS(=O)(=O)O`
Found: G (10 to 20)

Lookup: Next up: `Nc1nc(-c2ccco2)c2nnn(Cc3cccc(NS(=O)(=O)O)c3)c2n1`
Found: H (more than 20)

Lookup: Next up: `COc1cc(Cn2nnc3c(-c4ccco4)nc(N)nc32)ccc1NS(=O)(=O)O`
Found: G (10 to 20)

Lookup: Next up: `Nc1nc(-c2ccccc2)c2nnn(Cc3ccc(NS(=O)(=O)O)cc3)c2n1`
Found: G (10 to 20)
